Where do the numbers come from? From patent US12723100.

Target: T1, full-length human Nectin-4 on cells (human, UniProt Q96NY8 32-510)
T1 construct: the cell is named under assay; also called CHO-Nectin-4 cells; Nectin-4-CHO
T1 sequence: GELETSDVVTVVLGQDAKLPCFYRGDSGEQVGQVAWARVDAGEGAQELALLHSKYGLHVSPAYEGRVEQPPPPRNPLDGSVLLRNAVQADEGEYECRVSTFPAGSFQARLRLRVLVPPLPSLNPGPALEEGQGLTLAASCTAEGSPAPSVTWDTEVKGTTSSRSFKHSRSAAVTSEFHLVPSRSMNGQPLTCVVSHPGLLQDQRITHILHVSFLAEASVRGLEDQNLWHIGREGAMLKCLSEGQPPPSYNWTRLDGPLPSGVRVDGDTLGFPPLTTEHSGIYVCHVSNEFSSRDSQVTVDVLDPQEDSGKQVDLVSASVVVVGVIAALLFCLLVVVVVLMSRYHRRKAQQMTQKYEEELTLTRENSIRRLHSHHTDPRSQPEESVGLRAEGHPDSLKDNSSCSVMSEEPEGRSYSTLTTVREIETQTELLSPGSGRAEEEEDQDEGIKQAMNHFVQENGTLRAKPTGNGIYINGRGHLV
Experiment: flow cytometry, CHO-Nectin-4 cells
measuredMetric: EC50 (nM)
Form entry: value (nM) — number only.

Prompt: Query: EC50; subject: N4_mAb 2 (antibody, human IgG1, V domains shown, Tested as chimera (human IgG1/kappa constants); not shown: human IgG1 constant region (Uniprot P01857); human Kappa light chain constant region (UniProt P01834)) VH: QVQLKQSGPNLVQPSQSLSITCTVSGFSLTTYGAHWVRQSPGKGLEWLGVIWRGGSTDYNAAFMSRLSITKDNSKSQVFFKMNSLQADDTAIYYCAKIGYDGYAMDNWGQGTSVTVSS VL: DFQVTQSPASLSASVGETVTITCRTSENIHNYLAWYQQKQGKSPQLLVYNAKTLADGVPSRFSGSGSGTQYSLKINSLQPEDFGTYYCQHFWSSPWTFGGGTKLEIK
Completion: 0.64

Next binder, EC50 to be filled in.
Prompt: Query: EC50; subject: N4_mAb 1 (antibody, human IgG1, V domains shown, Tested as chimera (murine variable regions, human IgG1/kappa constants); not shown: human IgG1 constant region (Uniprot P01857); human Kappa light chain constant region (UniProt P01834)) VH: QVQLKQSGPGLVQPSQSLSITCTVSGFSLTNYGVNWVRQPPGKGLEWLGVIWSGGSTDYNAAFISRLSISKDISKSQVFFKMNSLQADDTAKYYCAREGYDGYAMDYWGQGTSVTVSS VL: DIQMTQSPASLSVSVGETVTITCRASENIFSSLAWYQQKQGKSPQLLVYGATNLADGVPSRFSGSGSGTQYSLKINSLQSEDFGTYWCQHFWGNPWTFGGGTKLEIK
Completion: 0.29
